# Assay Target: T1, Mutant CD33-GFP M8 (K52A) on 293FT cells (UniProt P20138 18-364)
# T1 construct: whole, on cells; not shown: GFP fused to CD33
# T1 sequence (P20138 18-364 K52A): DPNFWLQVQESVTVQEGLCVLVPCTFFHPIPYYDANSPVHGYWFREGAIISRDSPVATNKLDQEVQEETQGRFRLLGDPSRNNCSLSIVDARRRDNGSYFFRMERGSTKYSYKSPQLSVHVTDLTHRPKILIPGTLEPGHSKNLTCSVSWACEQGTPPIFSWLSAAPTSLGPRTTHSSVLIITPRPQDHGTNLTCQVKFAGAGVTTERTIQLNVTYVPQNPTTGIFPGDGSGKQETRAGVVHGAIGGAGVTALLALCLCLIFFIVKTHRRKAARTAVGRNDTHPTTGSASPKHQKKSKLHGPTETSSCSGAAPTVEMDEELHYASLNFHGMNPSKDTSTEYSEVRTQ
# Assay Overview: FACS, mutant CD33-GFP on 293FT cells
Kindly return t if reported FACS binding data is no lower than 90; return f if it is lower.

## Task Reported FACS binding data reaches at least 90 for hu195 (antibody, V domains shown) VH: QVQLVQSGAEVKKPGSSVKVSCKASGYTFTDYNMHWVRQAPGQGLEWIGYIYPYNGGTGYNCIKFKSKATITADESTNTAYMELSSLRSEDTAVYYCARGRPAMDYWGQGTLVTVSS VL: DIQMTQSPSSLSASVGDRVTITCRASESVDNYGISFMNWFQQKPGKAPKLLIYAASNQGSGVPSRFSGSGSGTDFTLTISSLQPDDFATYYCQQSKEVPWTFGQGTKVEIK ?
## Result t

## Task Reported FACS binding data reaches at least 90 for sdCD33_7 (VHH, sdAb from a naive llama phage library; also called 420; sdAb420) VHH: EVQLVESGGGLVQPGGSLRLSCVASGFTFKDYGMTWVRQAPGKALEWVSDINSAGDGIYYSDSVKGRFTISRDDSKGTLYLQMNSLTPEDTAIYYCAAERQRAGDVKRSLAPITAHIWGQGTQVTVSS ?
## Result f

## Task Reported FACS binding data reaches at least 90 for sdCD33_6 (VHH, sdAb from a naive llama phage library; also called 416; sdAb416) VHH: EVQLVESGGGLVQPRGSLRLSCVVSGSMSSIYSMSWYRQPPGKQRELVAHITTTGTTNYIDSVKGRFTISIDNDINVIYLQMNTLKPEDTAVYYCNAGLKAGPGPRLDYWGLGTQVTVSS ?
## Result t

## Task Reported FACS binding data reaches at least 90 for sdCD33_9 (VHH, sdAb from a naive llama phage library; also called 426; sdAb426) VHH: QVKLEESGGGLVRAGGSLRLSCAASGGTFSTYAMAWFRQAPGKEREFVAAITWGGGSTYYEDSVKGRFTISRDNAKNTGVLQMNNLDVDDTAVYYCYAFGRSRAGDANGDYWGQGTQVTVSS ?
## Result t

## Task Reported FACS binding data reaches at least 90 for sdCD33_8 (VHH, sdAb from a naive llama phage library; also called 424; sdAb424) VHH: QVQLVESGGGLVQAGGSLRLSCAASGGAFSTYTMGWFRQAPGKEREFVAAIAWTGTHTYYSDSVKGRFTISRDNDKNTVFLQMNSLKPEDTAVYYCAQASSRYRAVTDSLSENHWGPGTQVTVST ?
## Result t
